- Assay Method Text: chemical genetic growth profiling, strain panel (AID 1159580);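 note: tested at 20 µM; growth read once vehicle control cultures reached saturation at 30 °C; 1 = growth at the plate median or of vehicle wells; lower values mean less growth of the strain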
- Condition Description: S. cerevisiae deletion strains, growth OD, locus YMR231W, strain pep5, active compounds read low
The campaign covered roughly 5,500 compounds. About 2,000 (36%) were called active. Roughly 18% stayed inconclusive and do not appear here. This is one part of the list.
Give measured normalized growth for each item. Keep answers brief.

As a guide, the following entries are already answered.
>>> observed_value("C#C[C@]1(O)CCC2C3CCC4=C(CCC(=O)C4)C3CC[C@@]21C (stereo not given in full)")
"0.981 (inactive)"
>>> observed_value("NCCC(=O)N[C@@H](Cc1cnc[nH]1)C(=O)O")
"0.985 (inactive)"
>>> observed_value("Clc1ccccc1C(c1ccccc1)(c1ccccc1)n1ccnc1")
"0.0713 (active)"
>>> observed_value("C[C@@H]1CC[C@H]2[C@@H](C)C(=O)O[C@@H]3O[C@@]4(C)CC[C@@H]1[C@]32OO4")
"0.928 (active)"
>>> observed_value("C#C[C@]1(O)CCC2C3CCC4=CC(=O)CC[C@@H]4C3CC[C@@]21CC (stereo not given in full)")
"0.999 (inactive)"
>>> observed_value("C#C[C@]1(O)CCC2C3CCC4=CC(=O)CC[C@@H]4C3CC[C@@]21C (stereo not given in full)")
"0.981 (inactive)"
>>> observed_value("N=C(N)c1ccc(OCCCCCOc2ccc(C(=N)N)cc2)cc1")
"0.965 (inactive)"
>>> observed_value("Nc1ccc(S(=O)(=O)c2ccc(N)cc2)cc1")
"0.986 (inactive)"
>>> observed_value("C#C[C@]1(OC(C)=O)CCC2C3CCC4=C/C(=N\\O)CCC4C3CC[C@@]21CC (stereo not given in full)")
"0.45 (active)"
>>> observed_value("FC(F)(F)c1ccccc1-n1ccnc1")
"1.02 (inactive)"

I have 2 compounds here; please give me normalized growth for each one.
1. Cc1cn([C@H]2C[C@H](N=[N+]=[N-])[C@@H](CO)O2)c(=O)[nH]c1=O
2. CCOC(=O)OC(C)OC(=O)C1N2C(=O)C(NC(=O)[C@H](N)c3ccccc3)C2SC1(C)C (stereo not given in full)

### Response
["1 (inactive)", "0.998 (inactive)"]

* * *

- Assay Method Text: chemical genetic growth profiling, strain panel (AID 1159580);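 note: tested at 20 µM; growth read once vehicle control cultures reached saturation at 30 °C; 1 = growth at the plate median or of vehicle wells; lower values mean less growth of the strain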
- Condition Description: S. cerevisiae deletion strains, growth OD, locus YLL001W, strain dnm1, active compounds read low
Screen size: about 5,500 compounds; about 2,000 (36%) were called active. Another 18% or so got no clear call; they are omitted. This is one part of the list.
Give measured normalized growth for each item. Keep answers brief.

As a guide, the following entries are already answered.
>>> observed_value("N#CC(O[C@@H]1O[C@H](CO[C@@H]2O[C@H](CO)[C@@H](O)[C@H](O)[C@H]2O)[C@@H](O)[C@H](O)[C@H]1O)c1ccccc1 (some centres undefined)")
"0.984 (inactive)"
>>> observed_value("OC(CCN1CCCC1)(c1ccccc1)C1CCCCC1 (centres undefined)")
"0.956 (inactive)"
>>> observed_value("O=c1[nH]cc(F)c(=O)[nH]1")
"0.456 (active)"
>>> observed_value("Nc1c2c(nc3ccccc13)CCCC2O (centres undefined)")
"0.983 (inactive)"
>>> observed_value("COc1cc(C(=O)NCCCCCC(=O)O)cc(OC)c1OC")
"0.998 (inactive)"

I have 4 molecules here; please give me normalized growth for each one.
1. COc1c(-c2coc3cc4c(cc3c2=O)CC(O)C(C)(C)O4)ccc2c1C=CC(C)(C)O2 (centres undefined)
2. C/C=C1\[C@H]2C=C(C)C[C@]1(N)c1ccc(=O)[nH]c1C2
3. C#C[C@]1(OC(C)=O)CCC2C3CCC4=C/C(=N\O)CCC4C3CC[C@@]21CC (some centres undefined)
4. Nc1c2ccccc2nc2ccccc12 (tested in a mixture with another compound)

### Response
["0.991 (inactive)", "1.02 (inactive)", "0.826 (active)", "0.603 (active)"]

* * *

- Assay Method Text: chemical genetic growth profiling, strain panel (AID 1159580);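 note: tested at 20 µM; growth read once vehicle control cultures reached saturation at 30 °C; 1 = growth at the plate median or of vehicle wells; lower values mean less growth of the strain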
- Condition Description: S. cerevisiae deletion strains, growth OD, locus YOL012C, strain htz1
The campaign covered roughly 5,500 compounds. About 2,000 (36%) were called active. Not shown: some 18% with an inconclusive outcome. Cut-off read from the data, not from the text of the source: active = normalized growth mostly below about 0.91 (no sharp cut-off); inconclusive = no clear call, values can overlap the other calls; inactive = mostly above about 0.92. This is one part of the list.
Outcomes you can answer with include only these: true (1) for active, false (0) for inactive

>>> class_name("C[C@H]1[C@H](C)CC[C@]2(CO)CC[C@]3(C)C(=CCC4[C@@]5(C)CC[C@H](O)C(C)(C)C5CC[C@]43C)[C@H]12 (some centres not stated)")
"false (0)"
>>> class_name("C[C@@H]1OC(O[C@H]2[C@H](OC(=O)[C@]34CCC(C)(C)CC3C3=CCC5[C@@]6(C)CC[C@H](OC7O[C@@H](C)[C@H](O[C@@H]8OC[C@@H](O)[C@H](O)[C@H]8O)[C@@H](O)[C@H]7O)C(C)(C)C6CC[C@@]5(C)[C@]3(C)CC4O)OC[C@H](O)[C@H]2O)[C@H](O)[C@H](O)[C@H]1O[C@@H]1O[C@H](CO)[C@@H](O)[C@H](O)[C@H]1O (some centres not stated)")
"true (1)"
>>> class_name("NC12CC3CC(CC(C3)C1)C2")
"false (0)"
>>> class_name("CO[C@@]12[C@@H]3NC3CN1C1=C(C(=O)C(N)=C(C)C1=O)[C@@H]2COC(N)=O (some centres not stated)")
"false (0)"
>>> class_name("C[C@@H]1CC[C@]2(C(=O)O)CC[C@]3(C)C(=CCC4[C@@]5(C)CC[C@H](O)C(C)(C)C5CC[C@]43C)C2[C@H]1C (some centres not stated)")
"false (0)"

### Prompt What is the recorded call for this compound in the test? CCOP(=S)(OCC)Oc1nc(Cl)c(Cl)cc1Cl
### Response false (0)

### Prompt What is the recorded call for this compound in the test? CC(=O)NC(C(=O)O)C(C)(C)SN=O (configuration not stated)
### Response false (0)

### Prompt What is the recorded call for this compound in the test? CC1(C)CC[C@@]2(C(=O)O)C(C1)C1=CCC3[C@@]4(C)CC[C@H](O)C(C)(C)C4CC[C@@]3(C)[C@]1(C)C[C@@H]2O (some centres not stated)
### Response false (0)

### Prompt What is the recorded call for this compound in the test? N#CC(O[C@@H]1O[C@H](CO[C@@H]2O[C@H](CO)[C@@H](O)[C@H](O)[C@H]2O)[C@@H](O)[C@H](O)[C@H]1O)c1ccccc1 (some centres not stated)
### Response false (0)

### Prompt What is the recorded call for this compound in the test? CCCOc1ccccc1-c1nc2n[nH]nc2c(=O)[nH]1
### Response false (0)

### Prompt What is the recorded call for this compound in the test? CC(=O)OC1CC[C@@]2(C)C(CC[C@]3(C)C2CCC2C4CC(C)(C)CCC4(C(=O)O)CC[C@]23C)C1(C)C (some centres not stated)
### Response false (0)

### Prompt What is the recorded call for this compound in the test? O=C(O)/C=C1\CCCc2ccccc2C1O (configuration not stated)
### Response false (0)

* * *

- Assay Method Text: chemical genetic growth profiling, strain panel (AID 1159580);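 note: tested at 20 µM; growth read once vehicle control cultures reached saturation at 30 °C; 1 = growth at the plate median or of vehicle wells; lower values mean less growth of the strain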
- Condition Description: S. cerevisiae deletion strains, growth OD, locus YNL175C, strain NOP13, active compounds read low
Hit rate of the full screen: of about 5,500 compounds, about 2,000 (36%) were called active. Another 18% or so got no clear call; they are omitted. Some of the results follow.
Reported Metric: normalized growth

>>> observed_value("COc1ccc(C(=O)NCc2cccnc2)cc1C(=O)NCc1cccnc1")
"1.02 (inactive)"
>>> observed_value("Nc1c2c(nc3ccccc13)CCCC2O (centres undefined)")
"1 (inactive)"
>>> observed_value("N=C(N)SCCc1ccc(CCSC(=N)N)cc1")
"1 (inactive)"
>>> observed_value("CC1=C[C@@H]2c3cccc4[nH]cc(c34)C[C@H]2N(C)C1")
"1 (inactive)"
>>> observed_value("CC(C)(C)c1o[nH]c(=O)c1CC(N)C(=O)O (centres undefined)")
"1 (inactive)"
>>> observed_value("NNc1nncc2ccccc12")
"1.01 (inactive)"
>>> observed_value("CC1=NS(=O)(=O)c2cc(Cl)ccc2N1")
"1 (inactive)"
>>> observed_value("Oc1ccc2c3c1O[C@H]1[C@@H](O)CC[C@@]4(O)C(C2)N(CC2CCC2)CCC314 (some centres undefined)")
"1.01 (inactive)"

I have 4 compounds here; please give me normalized growth for each one.
1. OC(CCN1CCCCC1)(c1ccccc1)C1CCCCC1 (centres undefined)
2. CNC(=O)Oc1ccc2c(c1)C1(C)CCN(C)C1N2C (centres undefined)
3. NCC1OC(O[C@@H]2[C@H](O)C(OC3C(O)C(N)CC(N)C3OC3OC(CO)C(O)C(O)C3N)O[C@@H]2CO)C(N)C(O)C1O (some centres undefined)
4. C[N+](C)(C)CCO

### Response
1.01 (inactive)
1.01 (inactive)
1.01 (inactive)
1.02 (inactive)

I have 2 compounds here; please give me normalized growth for each one.
1. N=C(N)SCCN
2. NC(N)=[N+]1CCc2ccccc2C1

### Response
1. 0.991 (inactive)
2. 0.991 (inactive)
